Please provide measured TGI for the entries that follow.
test system: T-47D breast; assay: NCI tumour cell line growth inhibition, 48 h

Value of TGI reported for the compound "O=C(Nc1nc2ccc(C(F)(F)F)cc2s1)c1cc(Cl)ccc1O" is 2.96 µM

Value of TGI reported for the compound CC(=O)Nc1ccc(N2C(=O)/C(=C\c3cccc(Oc4ccccc4)c3)S(=O)(=O)C2c2ccccc2)cc1 (centres undefined) is > 100 µM

Value of TGI reported for the compound COc1ccc2c(c1)CCCC(Br)C2=O (centres undefined) is > 100 µM

Value of TGI reported for the compound "O=c1cc(N2CCOCC2)[nH]c(=O)n1-c1ccc(F)cc1" is > 100 µM

Value of TGI reported for the compound "C=CCCCCC/C=C\[C@H](O)C#CC#C/C=C/CO" is > 100 µM

Value of TGI reported for the compound "CC(=O)N(C)c1ccc(Nc2cc(C)[nH]c3ccc4ncnc4c23)cc1" is 39.6 µM

Value of TGI reported for the compound "CS(=O)(=O)O[C@H]1CN2C[C@@H](O)[C@@H](O)[C@H]2[C@H]1CO" is > 100 µM

Value of TGI reported for the compound O=c1cnn(C2OC(C(O)CO)C(O)C2O)c(=O)[nH]1 (centres undefined) is > 100 µM

Value of TGI reported for the compound CCCCN(CCCC)CC(O)c1cc(-c2ccc(C(F)(F)F)cc2)nc(-c2ccc(C(F)(F)F)cc2)c1 (centres undefined) is > 100 µM

###

tested on: HT29 colon; assay: NCI tumour cell line growth inhibition, 48 h
propertyName: TGI

Value of TGI reported for the compound O=C(O)C1C2C=CC(O2)C1C(=O)NCc1ccccn1 (centres undefined) is > 100 µM

Value of TGI reported for the compound "CCc1cc2c(oc3cc4ccccc4cc32)c(=O)[nH]1" is > 10 µM

Value of TGI reported for the compound "CN(C)N=Nc1ccc(NC=O)cc1" is > 100 µM

Value of TGI reported for the compound "CC1=C(C(=O)Nc2ccccc2)C(c2ccccc2)C(C(=O)Nc2ccccc2)=C(C)N1" is > 100 µM

Value of TGI reported for the compound "CCCCCCNC(=O)c1cc(NCc2cc(O)ccc2O)ccc1O" is 44.3 µM

Value of TGI reported for the compound CCN(CC)CC1CCCCCCCCCCC1=O (centres undefined) is > 100 µM

Value of TGI reported for the compound "C=C(CCC/C(C)=C/C=C/[C@]1(C)CCCc2ccoc21)CC(=O)O" is > 100 µM

Value of TGI reported for the compound "Cc1cc([N+](=O)[O-])ccc1Nc1cccc(Cl)c1C" is 32 µM

Value of TGI reported for the compound "COc1cccc(/C=C/c2cc(OC)c(OC)c(OC)c2)c1" is > 100 µM

###

test system: RPMI-8226 leukemia; test: NCI tumour cell line growth inhibition, 48 h
Please provide measured TGI for the entries that follow.

Value of TGI reported for the compound OC1[C@@H]2[C@@H](O)[C@H](O)[C@@H](O)N2C[C@@H]1O (some centres undefined) is > 23.5 µM

Value of TGI reported for the compound "COc1cc2cc3c4c(cc(OC)c(OC)c4c2cc1OC)CCN3C(=O)OCCN1CCNCC1" is 34.6 µM

Value of TGI reported for the compound "O=C1NC(=O)C(c2c[nH]c3ccccc23)=C1c1cnc[nH]1" is > 100 µM

Value of TGI reported for the compound CCCCS(=O)CCC(N)P(=O)(O)O (centres undefined) is > 100 µM
